Recorded values, source PubChem BioAssay AID743269.

List of inhibition values.
test system: HIV-1 integrase (with human LEDGF/p75); test: blockers of LEDGF/p75-dependent integrase strand transfer – biochemical, TR-FRET, high throughput, primary screen (AID 743269); settings: TR-FRET IN-LEDGF/p75 DNA integration, Eu/Cy5; at 3.7 µM; stronger effect = higher value;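 note: signal is the Cy5 over europium emission ratio at 671 and 618 nm; 0% = plate median of compound wells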
Hit rate of the full screen: of about 370,000 compounds, about 2,400 (0.65%) were called active. Only a selection was taken, and actives are over-represented in it overall.
State the answer as a number, implicitly in %.

# count of solved cases: 5
compound=CCc1c(-c2ccccc2)nc(N)c(C#N)c1-c1cccs1 target_entity="HIV-1 integrase (with human LEDGF/p75)" assay_result=0.5
compound="CC1CN(/C=C/C(=O)C(F)(F)F)CC(C)O1 (stereo unspecified)" target_entity="HIV-1 integrase (with human LEDGF/p75)" assay_result=1.92
compound="COc1ccc(C2Nc3ccccc3C(=O)N2Cc2cccs2)cc1COc1c(C)cccc1C (stereo unspecified)" target_entity="HIV-1 integrase (with human LEDGF/p75)" assay_result=-0.72
compound="CCOC(=O)c1csc(NC(=O)C2CCCN(S(=O)(=O)c3ccc(Cl)s3)C2)n1 (stereo unspecified)" target_entity="HIV-1 integrase (with human LEDGF/p75)" assay_result=3.42
compound=COc1cc(/C=C/C(=O)n2cnc3ccccc32)cc(OC)c1OC target_entity="HIV-1 integrase (with human LEDGF/p75)" assay_result=-2.83

Query block: Data request, read-out inhibition, for CCOC(=O)c1ccc(NC(=O)c2c(N)n(C)c(=O)[nH]c2=O)cc1
Result block: -0.3

Query block: Data request, read-out inhibition, for Cc1cc([N+](=O)[O-])c(NC2CCCCC2)c([N+](=O)[O-])c1
Result block: 0.17

Query block: Data request, read-out inhibition, for CSc1ccc(-c2c(C#N)c(N)nc3c2c(C)nn3-c2ccccc2)cc1
Result block: -1.93

Query block: Data request, read-out inhibition, for CC(=O)OCC1(O)CC23CCC4c5ccoc5CCC4(C)C2CCC1C3 (stereo unspecified)
Result block: 36.9

Query block: Data request, read-out inhibition, for CN(C)[C@H]1CCN(c2cccc3c2S(=O)(=O)N2CC[C@H](C2)O3)C1
Result block: 2.98

Query block: Data request, read-out inhibition, for Clc1cc(NC2CCCCC2)ncn1
Result block: 21.7

Query block: Data request, read-out inhibition, for C=C1c2c(Cl)ccc(O)c2C(O)=C2C(=O)[C@]3(O)C(O)=C(C(N)=O)C(=O)[C@@H](N(C)C)[C@@H]3[C@@H](O)C12 (stereo partly specified)
Result block: 68

Query block: Data request, read-out inhibition, for CN(C)c1ccc(N/C=C/C(=O)C(F)(F)F)cc1
Result block: 51

Query block: Data request, read-out inhibition, for O=C(N/C(=C\c1ccc(O)cc1)C(=O)N1CCCCC1)c1ccccc1
Result block: 3.65

Query block: Data request, read-out inhibition, for COc1ccc(-c2cc(-c3nnc(SCC(=O)Nc4cccc5ccccc45)n3N)[nH]n2)cc1
Result block: -3.91

Query block: Data request, read-out inhibition, for CCc1cc2c(NC3CCCC3)ncnc2s1
Result block: -1.83

Query block: Data request, read-out inhibition, for Cc1ccc(C(=O)N/C(=C/c2cccs2)C(=O)N2CCCCC2)cc1
Result block: 33

Query block: Data request, read-out inhibition, for CCOC(=O)c1ccc(NC(=O)c2c(NCc3ccccc3)[nH]c(=O)[nH]c2=O)cc1
Result block: 2.44

Query block: Data request, read-out inhibition, for C=CCN1C(=O)[C@@H](CC(=O)NCC2CCCCC2)[C@]2(C(=O)OC)CCCCC=C12
Result block: 0.59

Query block: Data request, read-out inhibition, for COc1ccc(CSc2nnc(SCC(=O)Nc3ccccc3C(F)(F)F)s2)cc1
Result block: -4.35

Query block: Data request, read-out inhibition, for CN(C)[C@@H]1C(=O)C(C(N)=O)=C(O)[C@@]2(O)C(=O)C3=C(O)c4c(O)ccc(Cl)c4[C@@H](O)[C@H]3C[C@@H]12
Result block: 38.5

====

system: HIV-1 integrase (with human LEDGF/p75); experiment: blockers of LEDGF/p75-dependent integrase strand transfer – biochemical, TR-FRET, high throughput, primary screen (AID 743269); conditions: TR-FRET IN-LEDGF/p75 DNA integration, Eu/Cy5; at 3.7 µM; stronger effect = higher value
Out of some 370,000 compounds screened, about 2,400 (0.65%) were called active. This is one part of a sample in which actives are shown more often than they occur.
experimental-readout: inhibition

compound=CCOC(=O)[C@]12CCCCC/C=C\1N(Cc1ccc(OC)cc1)C(=O)[C@H]2CC(=O)NCCCN1CCCC1=O assay_result="-3.19% (inactive)"
compound="COC(=O)C1CN(CC(C)C)CCS(=O)(=O)N1Cc1ccc(F)cc1 (stereo not given)" assay_result="-4.4% (inactive)"
compound="COCCn1nnnc1C(c1cc2ccc(OC)cc2[nH]c1=O)N1CCc2ccccc2C1 (stereo not given)" assay_result="23.1% (active)"

Query block: Data request, read-out inhibition, for Cc1ccc(NC(=O)Cc2cccc(F)c2)c(S(=O)(=O)N2CCOCC2)c1
Result block: 1.83% (inactive)

Query block: Data request, read-out inhibition, for COCCn1nnnc1C(c1ccccc1Cl)N1CCN(c2ccccc2OC)CC1 (stereo not given)
Result block: -2.12% (inactive)

====

system: HIV-1 integrase (with human LEDGF/p75); test: blockers of LEDGF/p75-dependent integrase strand transfer – biochemical, TR-FRET, high throughput, primary screen (AID 743269); details: TR-FRET IN-LEDGF/p75 DNA integration, Eu/Cy5; at 3.7 µM; stronger effect = higher value;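 note: signal is the Cy5 over europium emission ratio at 671 and 618 nm; 0% = plate median of compound wells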
Hit rate of the full screen: of about 370,000 compounds, about 2,400 (0.65%) were called active. The sample holds actives, similar compounds and a random draw of the others, so the mix is not that of the screen.
List of inhibition values.
State the answer as a number, implicitly in %.

compound=CCOC(=O)[C@]12CCCC3=C1N(CCC3)C(=O)[C@@H](CC(=O)N1CCSCC1)C2 assay_result=4.16

Query block: Data request, read-out inhibition, for COC(=O)C1CN(Cc2ccc(F)cc2)CCS(=O)(=O)N1Cc1ccc(Cl)cc1 (stereo not given)
Result block: -0.83

Query block: Data request, read-out inhibition, for COC(=O)c1cccc(Cn2ccc3ccc(-c4ccc5ccn(C(=O)c6ccccc6C)c5c4)cc32)c1
Result block: 1.28

Query block: Data request, read-out inhibition, for O=C(NC1CCC1)c1ccc(C#CC2CC2)cn1
Result block: 0.75

Query block: Data request, read-out inhibition, for O=C(CCCCCN1C(=O)C2C3C=CC(C3)C2C1=O)Nc1ccccn1 (stereo not given)
Result block: 1.71

====

system: HIV-1 integrase (with human LEDGF/p75); assay: blockers of LEDGF/p75-dependent integrase strand transfer – biochemical, TR-FRET, high throughput, primary screen (AID 743269); details: TR-FRET IN-LEDGF/p75 DNA integration, Eu/Cy5; at 3.7 µM; stronger effect = higher value;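 note: signal is the Cy5 over europium emission ratio at 671 and 618 nm; 0% = plate median of compound wells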
About 2,400 (0.65%) of roughly 370,000 compounds were called active. This is one part of a sample in which actives are shown more often than they occur.
experimental-readout: inhibition (%)
State the answer as a number, implicitly in %.

# count of solved cases: 5
molecule="O=C(Cn1c(=O)n(Cc2ccco2)c(=O)c2ccccc21)NCC1CCCO1 (stereo not given)" target_entity="HIV-1 integrase (with human LEDGF/p75)" assay_result=2.8
molecule="COc1ccc(C2CC(c3cccs3)=NN2c2nc(C)c(C(C)=O)s2)cc1OC (stereo not given)" target_entity="HIV-1 integrase (with human LEDGF/p75)" assay_result=-0.06
molecule=Cc1ccc(C)c(-c2nnc(NC(=O)CS(=O)(=O)c3ccccc3)o2)c1 target_entity="HIV-1 integrase (with human LEDGF/p75)" assay_result=-2.12
molecule=O=C(Nc1nnc(-c2ccccc2)o1)c1cccc(S(=O)(=O)N2CCOCC2)c1 target_entity="HIV-1 integrase (with human LEDGF/p75)" assay_result=4.42
molecule="Cc1cc2c(c(=O)n1Cc1ccco1)C(c1ccccc1)C(C#N)=C(N)O2 (stereo not given)" target_entity="HIV-1 integrase (with human LEDGF/p75)" assay_result=42.2

Query molecule follows.
Query block: Data request, read-out inhibition, for O=S1(=O)c2ccc(N3CCN(Cc4ccccc4F)CC3)cc2Oc2ccccc2CN1Cc1cn(Cc2ccc(Cl)cc2)nn1
Result block: 3.58

====

tested on: HIV-1 integrase (with human LEDGF/p75); assay: blockers of LEDGF/p75-dependent integrase strand transfer – biochemical, TR-FRET, high throughput, primary screen (AID 743269); details: TR-FRET IN-LEDGF/p75 DNA integration, Eu/Cy5; at 3.7 µM; stronger effect = higher value;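 note: signal is the Cy5 over europium emission ratio at 671 and 618 nm; 0% = plate median of compound wells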
The campaign covered roughly 370,000 compounds. About 2,400 (0.65%) were called active. The list comes from a sample in which actives are over-represented; it also holds close analogues and randomly drawn compounds.
List of inhibition values.
State the answer as a number, implicitly in %.

chemical_string=C=CC1=C(C(=O)O)N2C(=O)[C@@H](NC(=O)/C(=N/OCC(=O)O)c3csc(N)n3)[C@H]2SC1 experimental_readout=inhibition assay_result=63.4
chemical_string=CCOc1ccc(NC(=S)NC(=O)/C=C/c2ccc(OC)cc2)c([N+](=O)[O-])c1 experimental_readout=inhibition assay_result=5.44
chemical_string=Cc1cc(NC(=O)COC(=O)/C=C/c2ccc(C)o2)no1 experimental_readout=inhibition assay_result=-2.47
chemical_string=COc1ccc(N2CCN(CCNS(=O)(=O)c3ccc(C(C)(C)C)cc3)CC2)cc1 experimental_readout=inhibition assay_result=1.13

Query compound follows.
Query block: Data request, read-out inhibition, for CCCNC(=O)Nc1ccc2c(c1)C(=O)N(C)[C@H]1CC[C@H](CC(=O)NCC3CCCCC3)O[C@@H]1CO2
Result block: -2.65
